# credit: the supplement of paper PMC10849652

Molecular target: YBX1 (UniProt P67809)
Sequence (P67809 whole entry, looked up): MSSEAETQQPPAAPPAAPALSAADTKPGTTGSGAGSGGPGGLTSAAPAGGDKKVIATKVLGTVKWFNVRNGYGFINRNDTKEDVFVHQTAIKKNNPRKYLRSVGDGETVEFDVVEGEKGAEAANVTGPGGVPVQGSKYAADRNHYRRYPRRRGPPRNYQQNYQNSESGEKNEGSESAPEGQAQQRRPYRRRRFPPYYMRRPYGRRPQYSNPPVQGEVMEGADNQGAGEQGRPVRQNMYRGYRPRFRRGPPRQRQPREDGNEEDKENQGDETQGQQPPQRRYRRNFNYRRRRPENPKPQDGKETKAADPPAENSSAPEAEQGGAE
Assay: log2 fold change, soluble protein after heating vs DMSO (PISA); higher = thermal stabilisation; K562 cells, 10 uM, 30 min; active = over 0.2 and 3.5 SD of the protein, either way, in both replicates (recomputed)
The full data set covers some 7,900 targets. This sample favours those with a hit. About 0.6% of all pairs of compound and target were hits.
RECORDED_METRIC: log2 fold change
Just the number, please, no unit attached.

Some molecules with recorded log2 fold change:
[[record]]
smiles_string = "CS(=O)(=O)c1ccc(-c2cnc(N)c(C(=O)Nc3ccccc3)n2)cc1"
recorded_measurement = -0.101

[[record]]
smiles_string = "CN1CCN(CCOc2cc(OC3CCOCC3)c3c(Nc4c(Cl)ccc5c4OCO5)ncnc3c2)CC1"
recorded_measurement = -0.027

[[record]]
smiles_string = "CN1CCc2c(c3ccccc3n2Cc2ccc(C(=O)NO)cc2)C1"
recorded_measurement = 0.022


Would you kindly share the measured log2 fold change for Cc1ccc(-n2nc(C(C)(C)C)cc2NC(=O)Nc2ccc(OCCN3CCOCC3)c3ccccc23)cc1 ?
0.047
